EXPERIMENTAL_SYSTEM: T1, cynomolgus monkey OX40 protein (Novoprotein, #CB17) (cynomolgus monkey)
T1 construct: Bought recombinant protein; also called cyno OX40
RUN_DESCRIPTION: ELISA, coated cyno OX40 protein
Protocol: This example is intended to investigate the in vitro binding activity of the anti-OX40 HCAb monoclonal antibodies prepared in Example 1 to human and cynomolgus monkey OX40 proteins. […] The plate was added with a stop buffer (BBI life sciences, #E661006-0200) at 20 μL/well, and read for OD₄₅₀₋₆₅₀ values using a plate reader (Molecular Devices, model: SpectraMax Plus). The values were analyzed with Graphad 8.0 and plotted.
# maps each entry to its EC50
Write down the numeric answer in pM and omit the unit.

Challenge: # lookup: EC50 of PR002065 (antibody, human IgG1, V domains shown, no light chain; also called anti-OX40 HCAb antibody) VH: EVQLVESGGGLVQPGGSLRLSCAASGFTFSSYAMSWVRQAPGKGLEWVSAISGRGDITFYADSVRGRFTISRDNSKNTLYLQMNSLRAEDTALYYCANGMTGSTDVDFWGQGTLVTVSS
Response given: 104
